These measurements were taken from paper PMC12416549.

Listing of recorded apparent Kd (screen) by entry.
# systemUnderTest: T1, TNFR1 (Homo sapiens, UniProt P19438)
# T1 chain: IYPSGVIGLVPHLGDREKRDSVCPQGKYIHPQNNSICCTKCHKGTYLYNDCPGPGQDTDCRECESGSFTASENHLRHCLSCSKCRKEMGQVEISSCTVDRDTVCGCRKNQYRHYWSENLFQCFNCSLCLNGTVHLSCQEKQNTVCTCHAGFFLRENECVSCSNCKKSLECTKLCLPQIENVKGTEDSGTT
# measurementProtocol: yeast display SC50

binder	apparent Kd (screen), nM
R21Q (designed binder) MTLQELLREEALRRAEAEAFQYALELLAEKFPEQKEYLLDLAEEIESQIRSLSGVDVEDVRKFLDKEWAWVKELLAEHPAELAEVEAARAARLAELRAEVEAKVAA	0.539
Q48W (designed binder) MTLQELLREEALRRAEAEAFRYALELLAEKFPEQKEYLLDLAEEIESWIRSLSGVDVEDVRKFLDKEWAWVKELLAEHPAELAEVEAARAARLAELRAEVEAKVAA	29.5
